The values you see were collected from patent US20070167412A1.

property-measured: melting point

Consider the following illustrative entries.
If you can, please state the reported melting point value of COc1ccc(/C=C\c2cc(Br)c(OC)c(OC)c2)cc1O [Compound 13a] . 108 to 109 °C

// repeat for COc1ccc(/C=C/c2cc(Cl)c(OC)c(OC)c2)cc1O [Compound 12b] and report 138 to 140 °C

// repeat for COc1ccc(/C=C\c2cc(I)c(OC)c(I)c2)cc1C(C)=O [Compound 22c] and report 121 to 122 °C

// repeat for `COc1ccc(/C=C\c2cc(I)c(OC)c(OC)c2)cc1C(C)=O` and report 103 to 104 °C

Next compound, please.
If you can, please state the reported melting point value of COc1ccc(/C=C/c2cc(I)c(OC)c(OC)c2)cc1O [Compound 14b] . 111 to 113 °C
